All figures here come from PubChem BioAssay (NCI).

# Test system: HCT-116 colon
# measurement_notes: NCI-60 one-dose screen, 48 h (100 = growth as untreated, 0 = no growth, -100 = all killed)
# experimental_parameters: 10 µM unless noted
This is part of a sample that, as a whole, favours compounds with a hit. Of some 83,000 tested, about 20% had one in any assay.
attribute_measured: growth (%)
Express your answer in %, writing the number without its unit.

COc1ccccc1N1CCN(CCc2c[nH]c3cc4c(cc23)OCO4)CC1 :: 42.5
O=[N+]([O-])c1ccc2cnn(CSP(=S)(c3ccccc3)c3ccccc3)c2c1 :: 42.4
O=C(O)CC(Br)C(=O)CBr (stereo not drawn) :: 100
O=C(NCCNC(=O)c1ccc([As](O)O)cc1)c1ccc([As](O)O)cc1 :: 101
NC(Cc1ccc2c(c1)OCO2)c1ccc2c(c1)OCO2 (stereo not drawn) :: 95.5

Reported growth, molecule "CCC[CH2][Sn]([CH2]CCC)([CH2]CCC)[O]C(=O)CC" : ____
-88.6

Reported growth, molecule OC1(c2ccccc2F)c2ccccc2C2=NCCN21 (stereo not drawn) : ____
93.3

Reported growth, molecule "CC(=O)[O][Hg][c]1nc2c(c(=O)n(C)c(=O)n2C)n1C" : ____
99.9

Reported growth, molecule "c1cnc2c(c1)ccc1ncccc12" : ____
89.8
